# measurement conditions: formula F derivatives; rat plasma, 37° C., sampling time 15 s
Please assign Criterion not met whenever Sampling time/dissociation percent (%) 15 s is at or above 70%, and Criterion met whenever it is below.

>>> class("CC(C)c1cccc(C(C)C)c1OC(=O)C(F)CCCC(=O)[O-].CC(C)c1cccc(C(C)C)c1OC(=O)C(F)CCCC(=O)[O-].[Zn+2] (centres unmarked)")
"Criterion not met"

Kindly review the next compound as well.
Lookup: # strict comparison: is reported Sampling time/dissociation percent (%) 15 s < 70%? input = CC(C)c1cccc(C(C)C)c1OC(=O)C(CF)CCCCCCC(=O)[O-].CC(C)c1cccc(C(C)C)c1OC(=O)C(CF)CCCCCCC(=O)[O-].CC(C)c1cccc(C(C)C)c1OC(=O)C(CF)CCCCCCC(=O)[O-].[Al+3] (racemic)
Found: Criterion met

---

# measurement conditions: formula G derivatives; rat plasma, 37° C., sampling time 5 s
Measured Sampling time/dissociation percent (%) 5 S by item
Numeric answer plus unit only.

>>> result("CC(C)c1cccc(C(C)C)c1OC(=O)C(F)CCOP(=O)([O-])[O-].[K+].[K+] (racemic)")
"54.1%"
>>> result("CC(C)c1cccc(C(C)C)c1OC(=O)C(CF)CP(=O)([O-])[O-].CC(C)c1cccc(C(C)C)c1OC(=O)C(CF)CP(=O)([O-])[O-].CC(C)c1cccc(C(C)C)c1OC(=O)C(CF)CP(=O)([O-])[O-].[Al+3].[Al+3] (racemic)")
"22.1%"
>>> result("CC(C)c1cccc(C(C)C)c1OC(=O)[C@@H](F)CCOP(=O)([O-])[O-].[Na+].[Na+]")
"48.5%"

Consider the additional compound presented here.
// Sampling time/dissociation percent (%) 5 S value for CC(C)c1cccc(C(C)C)c1OC(=O)[C@@H](CCOP(=O)([O-])[O-])C(F)(F)F.[Li+].[Li+] : 38.7%

---

# experiment notes: In vitro dissociation of the water soluble taxane derivatives in blood plasma of rat
# Type: in vitro ADME, SD rats
# measurement conditions: 37° C., 10 min
Reported dissociation percent values for the following compounds.
Give just the number in %; leave the unit off.

// recorded dissociation percent for CC(=O)O[C@H]1C(=O)[C@@]2(C)[C@H]([C@H](OC(=O)c3ccccc3)[C@]3(O)C[C@H](OC(=O)[C@H](OC(=O)C(F)CCN(C)C)[C@@H](NC(=O)c4ccccc4)c4ccccc4)C(C)=C1C3(C)C)[C@]1(OC(C)=O)CO[C@@H]1C[C@@H]2O.Cl (stereo partly shown) : 100

Memo: CC(=O)O[C@H]1C(=O)[C@@]2(C)[C@H]([C@H](OC(=O)c3ccccc3)[C@]3(O)C[C@H](OC(=O)[C@H](OC(=O)C(F)(CCCCCCN(C)C4CCCC4)C(F)(F)F)[C@@H](NC(=O)c4ccccc4)c4ccccc4)C(C)=C1C3(C)C)[C@]1(OC(C)=O)CO[C@@H]1C[C@@H]2O.CS(=O)(=O)O (stereo partly shown) , reported dissociation percent: 57.9

Entry CO[C@H]1C(=O)[C@]2(C)[C@@H](OC)C[C@H]3OC[C@@]3(OC(C)=O)[C@H]2[C@H](OC(=O)c2ccccc2)[C@]2(O)C[C@H](OC(=O)[C@H](OC(=O)C(F)CCN(C)C)[C@@H](NC(=O)OC(C)(C)C)c3ccccc3)C(C)=C1C2(C)C.CS(=O)(=O)O (stereo partly shown) — recorded dissociation percent = 100

Measured dissociation percent of CO[C@H]1C(=O)[C@]2(C)[C@@H](OC)C[C@H]3OC[C@@]3(OC(C)=O)[C@H]2[C@H](OC(=O)c2ccccc2)[C@]2(O)C[C@H](OC(=O)[C@H](OC(=O)[C@@H](F)CCN(C)C)[C@@H](NC(=O)OC(C)(C)C)c3ccccc3)C(C)=C1C2(C)C.Cl : 100

---

# experiment notes: in vivo
# measurement conditions: male, SD, rat, iv, 5 mg/kg
measured metric: concentration at 5 min (ng/mL)
Quick reminder: number only, in ng/mL, skip the unit.

Entry under test: CC(=O)O[C@@]12CO[C@@H]1C[C@H](O)[C@@]1(C)C(=O)[C@H](O)C3=C(C)[C@@H](OC(=O)[C@H](O)[C@@H](NC(=O)OC(C)(C)C)c4ccccc4)C[C@@](O)([C@@H](OC(=O)c4ccccc4)[C@H]21)C3(C)C [docetaxel, reference compound] . Its concentration at 5 min was 769

---

# measurement conditions: formula F derivatives; rat plasma, 37° C., sampling time 5 s
measured metric: Sampling time/dissociation percent (%) 5 s
Write down the numeric answer in % and omit the unit.

Example cases with answers are listed next.
>>> number("CC(C)c1cccc(C(C)C)c1OC(=O)C(F)CCCCCC(=O)[O-].CC(C)c1cccc(C(C)C)c1OC(=O)C(F)CCCCCC(=O)[O-].[Ca+2] (racemic)")
63.8
>>> number("CC(C)c1cccc(C(C)C)c1OC(=O)C(F)C(=O)[O-].[Na+] (centres unmarked)")
55.5
>>> number("CC(C)c1cccc(C(C)C)c1OC(=O)C(F)CCCC(=O)[O-].CC(C)c1cccc(C(C)C)c1OC(=O)C(F)CCCC(=O)[O-].[Zn+2] (centres unmarked)")
63.2

The measured Sampling time/dissociation percent (%) 5 s associated with CC(C)c1cccc(C(C)C)c1OC(=O)C(CCC(=O)[O-])C(F)(F)F.[Li+] (centres unmarked) reads 47.4

Lookup result for CC(C)c1cccc(C(C)C)c1OC(=O)C(F)CC(=O)[O-].[Na+] (centres unmarked) ; measured Sampling time/dissociation percent (%) 5 s: 58.8

Sampling time/dissociation percent (%) 5 s reading for CC(C)c1cccc(C(C)C)c1OC(=O)C(CF)CCCCCCC(=O)[O-].CC(C)c1cccc(C(C)C)c1OC(=O)C(CF)CCCCCCC(=O)[O-].CC(C)c1cccc(C(C)C)c1OC(=O)C(CF)CCCCCCC(=O)[O-].[Al+3] (racemic) : 34.2

Form field Sampling time/dissociation percent (%) 5 s, entry CC(C)c1cccc(C(C)C)c1OC(=O)C(F)CCC(=O)[O-].[K+] (centres unmarked) : 92.3

The reported value for CC(C)c1cccc(C(C)C)c1OC(=O)C(F)CCC(=O)[O-].[Na+] (racemic) in terms of Sampling time/dissociation percent (%) 5 s is 64.1

---

# System: KM mice
# experiment notes: ED50 and LD50 test concerning anesthesia (sequential method) in mice
# Format: in vivo
# measurement conditions: anesthesia (loss of righting reflex), caudal vein injection, 3 mg/ml solution, confirmation test
measured metric: Mouse ED50 (mg/kg)
Report the figure in mg/kg without appending any unit label.

Look over these answered cases.
>>> number("CC(C)c1cccc(C(C)C)c1OC(=O)C(F)CC(=O)[O-].[Na+] (stereo not shown) [Compound F7]")
19.2
>>> number("CC(C)c1cccc(C(C)C)c1OC(=O)[C@@H](F)CCOP(=O)([O-])[O-].[Na+].[Na+] [Compound G2]")
19.8
>>> number("CC(C)c1cccc(C(C)C)c1OC(=O)[C@H](F)CCN(C)C.Cl [Compound E2]")
15.4

Consider CC(C)c1cccc(C(C)C)c1OC(=O)C(F)CCC(=O)[O-].[Na+] (racemic) [Compound F1] . Its measured Mouse ED50 is 18.6

---

# experiment notes: In vitro dissociation of the water soluble taxane derivatives in blood plasma of rat
# Assay type: in vitro ADME, SD rats
# measurement conditions: 37° C., 5 min
measured metric: dissociation percent (%)
The reply should contain only the number, in %.

>>> number("CC(=O)O[C@H]1C(=O)[C@@]2(C)[C@H]([C@H](OC(=O)c3ccccc3)[C@]3(O)C[C@H](OC(=O)[C@H](OC(=O)C(F)CCN(C)C)[C@@H](NC(=O)c4ccccc4)c4ccccc4)C(C)=C1C3(C)C)[C@]1(OC(C)=O)CO[C@@H]1C[C@@H]2O.Cl (stereo partly shown) [Compound 03]")
93.1
>>> number("CC(=O)O[C@@]12CO[C@@H]1C[C@H](O)[C@@]1(C)C(=O)[C@H](O)C3=C(C)[C@@H](OC(=O)[C@H](OC(=O)[C@H](F)CCN(C)C)[C@@H](NC(=O)OC(C)(C)C)c4ccccc4)C[C@@](O)([C@@H](OC(=O)c4ccccc4)[C@H]21)C3(C)C.CS(=O)(=O)O [Compound C4]")
93.4
>>> number("CC(=O)OC12COC1CC(O)C1(C)C(=O)C(O)C3=C(C)C(OC(=O)C(OC(=O)C(F)CCN(C)C)C(NC(=O)OC(C)(C)C)c4ccccc4)CC(O)(C(OC(=O)c4ccccc4)C21)C3(C)C.Cl (stereo not shown) [Compound 04]")
92.6
>>> number("CO[C@H]1C(=O)[C@]2(C)[C@@H](OC)C[C@H]3OC[C@@]3(OC(C)=O)[C@H]2[C@H](OC(=O)c2ccccc2)[C@]2(O)C[C@H](OC(=O)[C@H](OC(=O)[C@@H](F)CCN(C)C)[C@@H](NC(=O)OC(C)(C)C)c3ccccc3)C(C)=C1C2(C)C.CS(=O)(=O)O [Compound C8]")
88.4
>>> number("CC(=O)O[C@@]12CO[C@@H]1C[C@H](O)[C@@]1(C)C(=O)[C@H](O)C3=C(C)[C@@H](OC(=O)[C@H](OC(=O)[C@@H](F)CCN(C)C)[C@@H](NC(=O)OC(C)(C)C)c4ccccc4)C[C@@](O)([C@@H](OC(=O)c4ccccc4)[C@H]21)C3(C)C.CS(=O)(=O)O [Compound C5]")
93.3
>>> number("CC(=O)O[C@H]1C(=O)[C@@]2(C)[C@H]([C@H](OC(=O)c3ccccc3)[C@]3(O)C[C@H](OC(=O)[C@H](OC(=O)[C@H](F)CCN(C)C)[C@@H](NC(=O)c4ccccc4)c4ccccc4)C(C)=C1C3(C)C)[C@]1(OC(C)=O)CO[C@@H]1C[C@@H]2O.Cl [Compound 01]")
96.8

Reported dissociation percent for CC(=O)O[C@@]12CO[C@@H]1C[C@H](O)[C@@]1(C)C(=O)[C@H](O)C3=C(C)[C@@H](OC(=O)[C@H](OC(=O)C(F)CCN(C)C)[C@@H](NC(=O)OC(C)(C)C)c4ccccc4)C[C@@](O)([C@@H](OC(=O)c4ccccc4)[C@H]21)C3(C)C.CS(=O)(=O)O (stereo partly shown) [Compound C6] was 93.3

Data credit: patent US10239851B2
